This listing pairs compounds with measured GI50.
- Test system: A498
- protocol.notes: NCI tumour cell line growth inhibition, 48 h
Calls of active or inactive are those of the source. Rule as the data show it: active = GI50 up to about 1.1 µM and inactive = higher.

As a guide, the following entries are already answered.
compound: Cn1c(=O)c2sc3c4sc5c(=O)n(C)c6ccccc6c5c4sc3c2c2ccccc21
GI50: > 100 µM (inactive)
//
compound: CC1(C)OB(O)OC1(C)C
GI50: > 100 µM (inactive)
//
compound: CC(C(=O)N1C(=O)N(C(=O)[C@H](C)C(O)c2ccccc2)[C@H](c2ccccc2)[C@H]1c1ccccc1)[C@@H](O)c1ccccc1 (stereo not given in full)
GI50: 24.3 µM (inactive)
//
compound: CCCCN(CCCC)CC(O)c1cc(-c2ccc(Cl)c(Cl)c2)nc2c(Cl)cc(Cl)cc12 (stereo not given)
GI50: > 100 µM (inactive)
//
compound: Cc1ccc2c(c1)C(=O)c1ccc(C)nc1C2=O
GI50: > 100 µM (inactive)
//
compound: O=C(O)/C(Cl)=C(\Cl)C(=O)NC1C2CC3CC(C2)CC1C3 (stereo not given)
GI50: > 100 µM (inactive)
//
compound: CC1(CCc2ccccc2)CC1(Br)Br (stereo not given)
GI50: 39.6 µM (inactive)
//
compound: COc1ccc2c(c1)CC[C@@H]1C2CC[C@]2(C)C(=O)N(CCN3CCCC3)C(=O)CC12 (stereo not given in full)
GI50: 27.9 µM (inactive)
//
compound: c1ccc(C2(c3ccccc3)SSC3(S2)C2CC4CC(C2)CC3C4)cc1 (stereo not given)
GI50: > 100 µM (inactive)
//
compound: O=C(c1ccc(Cl)cc1)N1N=C(c2ccc(Cl)cc2)CC1(O)c1cc(F)c(Cl)cc1Cl (stereo not given)
GI50: 13.6 µM (inactive)

Exam item: Suppose we examine the compound `Cc1cccc2c(N)c3cccc(C(=O)NCC[N+](C)(C)Cc4ccc([N+](=O)[O-])n4C)c3nc12` ; what GI50 value has been reported?
Marked response: 10.4 µM (inactive)

Exam item: Any idea what GI50 was measured for COc1cc(/N=N/N(C)C)c(C(C)c2c3cc(OC)c(OC)cc3cc[n+]2C)cc1OC (stereo not given) ?
Marked response: > 100 µM (inactive)

Exam item: // returns reported GI50 for input CC(C)CC(NC(=O)C(CI)Cc1ccccc1)C(=O)Nc1ccccc1 (stereo not given)
Marked response: > 100 µM (inactive)

Exam item: Entry under review: COc1cc(/C=C2/C(=O)N(C(=O)OCc3ccccc3)C(Cc3cc(OC)c(OC)c(C)c3OC)C(=O)N2Cc2ccccc2)c(OC)c(C)c1OC (stereo not given) . Reported GI50?
Marked response: 88.7 µM (inactive)

Exam item: # query: GI50 of entry CC(CC(=O)N1C(=O)C(C)(C)[C@@H](O)[C@H]1CC(C)C(Cl)(Cl)Cl)C(Cl)(Cl)Cl (stereo not given in full)
Marked response: > 100 µM (inactive)

----------
- Test system: NCI-H522
- protocol.notes: NCI tumour cell line growth inhibition, 48 h
The source made the active and inactive calls. Rule as the data show it: active = GI50 up to about 1.1 µM and inactive = higher.
Reported GI50 values for the following compounds.

compound: CC[N+](C)(CC)CCC(O)(c1ccccc1)c1ccccc1
study.target: NCI-H522
test.value: > 100 µM (inactive)
--
compound: C=C(C)[C@@H]1CCC2=C[C@H](OC2=O)[C@@]2(C)C[C@@H]2C2=CC(C)=C(O2)[C@H]1O
study.target: NCI-H522
test.value: 15.1 µM (inactive)
--
compound: COC1(OC)CC2C(=O)N(Cc3ccccc3)C1C=C2S(=O)(=O)c1ccccc1 (stereo not drawn)
study.target: NCI-H522
test.value: 13.9 µM (inactive)
--
compound: CCN(CC)C(=S)SS(=O)(=O)c1ccc(N)cc1
study.target: NCI-H522
test.value: 3.68 µM (inactive)
--
compound: CC(=O)Nc1ccc(C2=N/C(=C\c3ccc(Cl)c(Cl)c3)C(=O)O2)cc1
study.target: NCI-H522
test.value: > 100 µM (inactive)
--
compound: C/C=C1/CN2CCC34C(=C(C(=O)OC)C1CC23)Nc1ccc(O)cc14 (stereo not drawn)
study.target: NCI-H522
test.value: > 100 µM (inactive)
--
compound: CCOc1cc(NC(C)=O)ccc1C(=O)NN1C(=O)/C(=C/c2ccco2)N=C1c1ccccc1
study.target: NCI-H522
test.value: 24.9 µM (inactive)

Would you kindly look at the next entry?
Exam item: Please provide the recorded GI50 for `CC1(C)CC(=O)C2=C(C1)NC1=C(C(=O)CC(C)(C)C1)C2c1ccc([N+](=O)[O-])cc1` , tested on NCI-H522.
Marked response: > 100 µM (inactive)

----------
- Test system: IGROV-1
- protocol.notes: NCI tumour cell line growth inhibition, 48 h
The source made the active and inactive calls. No stated cut-off is given here; in the data, active = GI50 up to about 1.1 µM and inactive = higher.
Quick reference for GI50 among some molecules

# count of solved cases: 4
molecule: Cc1ccc(O)c(Cc2nc3ccccc3nc2-c2cccc(Br)c2)c1
test.value: 46 µM (inactive)
--
molecule: CCO/N=C(/CC)c1ccc(Br)s1
test.value: > 100 µM (inactive)
--
molecule: CC(=O)O[C@H]1[C@@H](OC(C)=O)C(C)(C)/C=C/[C@H](C)C(=O)[C@@]2(OC(C)=O)C[C@@](C)(OC(C)=O)[C@H](OC(C)=O)[C@@H]2[C@H]2OC(=O)CC[C@@]2(OC(=O)c2ccccc2)[C@@H]1OCC(C)C
test.value: 68.5 µM (inactive)
--
molecule: CC1(CCOCc2ccccc2)NC(=O)NC1=O (stereo not given)
test.value: > 100 µM (inactive)

Exam item: Can you look up the measured GI50 of `COc1ccc(/C=C/c2ccnc3ccccc23)cc1OC` for me?
Marked response: 15.5 µM (inactive)

Exam item: What value of measured GI50 is listed for `O=C(CCCN1CCc2[nH]c3cc(F)ccc3c2C1)c1ccc(F)cc1` ?
Marked response: 16.4 µM (inactive)

Exam item: Can you look up the measured GI50 of CN1CC[C@]2(C)c3ccc(O)cc3CC3CCCC1C32C (stereo not given in full) for me?
Marked response: > 100 µM (inactive)

Exam item: Entry C/C=C1/CN2CCC34C(=C(C(=O)OC)C1CC23)Nc1ccc(O)cc14 (stereo not given) : reported GI50 = ?
Marked response: > 100 µM (inactive)

Exam item: Name the reported GI50 value associated with the molecule NC1C2C=CC(C2)C1C(=O)O (stereo not given)
Marked response: > 100 µM (inactive)

Exam item: Field request: GI50 | item: `CC(C)c1cccc(C(C)C)c1N1C(=O)C(=O)C(c2nc3ccccc3o2)C(=O)C1=O`
Marked response: > 100 µM (inactive)

----------
- System: NCI-H522
- protocol.notes: NCI tumour cell line growth inhibition, 48 h
Calls of active or inactive are those of the source. Rule as the data show it: active = GI50 up to about 1.1 µM and inactive = higher.
observable: GI50

Exam item: Item `C[C@@]12C[C@@H](c3ccccc3O1)N1Cc3ccccc3CSC1=N2` has what recorded GI50?
Marked response: 49.7 µM (inactive)

Exam item: Consider the compound `CC(C)(C)OC(=O)N(O)[C@@H]1CC[C@H](n2cnc3c(N)ncnc32)C1` and give its measured GI50.
Marked response: > 100 µM (inactive)

Exam item: Item under review: Cc1ccc(S(=O)(=O)NNC2Oc3cc4c(cc3C(c3ccccc3O)C2C)OCO4)cc1 (stereo not drawn) . Reported GI50?
Marked response: 12.4 µM (inactive)

----------
- Test system: HCT-116
- protocol.notes: NCI tumour cell line growth inhibition, 48 h
Activity calls are given as the source filed them. Rule as the data show it: active = GI50 up to about 1.1 µM and inactive = higher.
The reply should be one of these categories: active, inactive

Examples from the recorded data:
molecule: NC(c1ccccc1)(C(F)(F)F)P1(=O)OC(=O)c2ccccc2O1 (configuration not stated)
study.target: HCT-116
class.assignment: inactive
//
molecule: CC(C)(C)c1ccc2c(c1)S(=O)(=O)Nc1ccccc1NS(=O)(=O)c1cc(C(C)(C)C)ccc1OCCOCCOCCO2
study.target: HCT-116
class.assignment: inactive
//
molecule: O=C1Nc2ccccc2/C1=N/NC(=S)NCc1ccccn1
study.target: HCT-116
class.assignment: active
//
molecule: CC(=O)O[C@@H](c1nccn1Cc1ccccc1)[C@H]1OC(C)(C)O[C@@H]1[C@H]1COC(C)(C)O1
study.target: HCT-116
class.assignment: inactive
//
molecule: O=C1NC(=O)C2(CCCCCC2)N1
study.target: HCT-116
class.assignment: inactive

Exam item: // outcome(item) with item = `Brc1ccc2[nH]cc(-c3csc(-c4ccccn4)n3)c2c1`
Marked response: inactive

Exam item: Status in this test for COc1ccc(C(c2cc3c(cc2O)OCO3)N2CCOCC2)cc1OC (configuration not stated) ?
Marked response: inactive

Exam item: Please let me know the test result on file for `C=C(C)[C@@H]1CCC2=C[C@H](OC2=O)[C@@]2(C)C[C@@H]2C2=CC(C)=C(O2)[C@H]1O` .
Marked response: inactive

Exam item: So what was the verdict on `C=CCNC(=O)ON1C(=O)CCC1=O` in this test?
Marked response: inactive

Exam item: Record request — test call for `C=C(CCCO)[C@@H]1CC[C@@](C)(O)[C@H]1C`
Marked response: inactive

Exam item: Answer briefly: the call reported for `CC1(C)N/C(=C\[N+](=O)[O-])C(C)(C)N1O` in this assay.
Marked response: inactive
